target: HIV-1 protease (Human immunodeficiency virus type 1 group M subtype B, UniProt P04585); test: biochemical; conditions: read-out: HIV-1 Protease % Inhib, dose 100.000 uM
inhibition at 100 µM values for the compounds below.
OBSERVABLE: inhibition at 100 µM

COMPOUND	VALUE_REPORTED
CCC(c1cccc(NC(=O)CCc2cccc3ccccc23)c1)c1c(O)c2ccccc2oc1=O (stereo not drawn)	104%
CCC(c1cccc(NC(=O)CCSc2nc3ccccc3s2)c1)c1c(O)c2ccccc2oc1=O (stereo not drawn)	86.1%
CCC(c1ccccc1)c1c(O)c2ccc(C)cc2oc1=O (stereo not drawn)	89.2%
CCCC(c1ccccc1)c1c(O)c2ccccc2oc1=O (stereo not drawn) [Example 10, 4-Hydroxy-3-(1-phenylbutyl)-coumarin]	109%
O=c1oc2ccccc2c(O)c1C1CCN(Cc2ccccc2)c2ccccc21 (stereo not drawn)	91.1%
CCOC(=O)C(CC)c1c(O)c2ccccc2oc1=O (stereo not drawn)	50.1%
C=CCOc1ccc2c(O)c(C(CC)c3ccccc3)c(=O)oc2c1 (stereo not drawn)	83.5%
CCC(c1cccc(NC(=O)CCn2ccc3ccccc32)c1)c1c(O)c2ccccc2oc1=O (stereo not drawn)	111%
CC(c1ccccc1)c1c(O)c2ccccc2oc1=O (stereo not drawn) [Example 6, 4-Hydroxy-3-(α-methylbenzyl)-coumarin]	88.5%

====

inhibition at 10 µM values for the compounds below.
target: HIV-1 protease (Human immunodeficiency virus type 1 group M subtype B, UniProt P04585); experiment: biochemical; conditions: read-out: HIV-1 Protease % Inhib, dose 10.000 uM

COMPOUND	U	inhibition at 10 µM
CCC(c1ccc(C)s1)c1c(O)c2c(oc1=O)CCCCCC2 (centres unmarked)	%	99.8
CCCCCCCCS(=O)(=O)Nc1cccc(C(c2c(O)c3c(oc2=O)CCCCCC3)C2CC2)c1 (centres unmarked)	%	112
O=c1oc2c(c(O)c1C(c1cccc(NS(=O)(=O)c3ccc(Cl)cc3)c1)C1CC1)CCCCCC2 (centres unmarked)	%	108
CC(c1ccccc1)c1c(O)c2ccccc2oc1=O (stereo not drawn) [Example 6, 4-Hydroxy-3-(α-methylbenzyl)-coumarin]	%	29.2
O=c1oc2c(c(O)c1C(c1ccc(CCO)s1)C1CC1)CCCCCC2 (centres unmarked)	%	107
CCCC(c1cccc(NS(=O)(=O)c2ccc(F)cc2)c1)c1c(O)c2c(oc1=O)CCCCCC2 (centres unmarked)	%	105
O=C(Nc1cccc(C(c2c(O)c3c(oc2=O)CCCCCC3)C2CC2)c1)c1ccccc1 (centres unmarked)	%	101
O=c1oc2ccccc2c(O)c1C(c1ccccc1)c1ccccc1 [Example 7, 4-Hydroxy-3-diphenylmethylcoumarin]	%	42.5

====

target: HIV-1 protease (Human immunodeficiency virus type 1 group M subtype B); assay: biochemical; details: read-out: HIV-1 Protease % Inhib, dose 0.123 uM
inhibition at 0.123 µM values for the compounds below.

COMPOUND	inhibition at 0.123 µM (%)
O=c1oc2c(c(O)c1C(c1cccc(NS(=O)(=O)c3ccc(C(F)(F)F)cc3)c1)C1CC1)CCCCCC2 (stereo not drawn) [Example 267]	71.5
CC(C)C(c1cccc(N)c1)c1c(O)c2c(oc1=O)CCCCCC2 (stereo not drawn) [Example 371]	86.8
CCS(=O)(=O)Nc1cccc(C(c2c(O)c3c(oc2=O)CCCCCC3)C2CC2)c1 (stereo not drawn) [Example 318]	28.3
O=C1c2ccccc2C(=O)N1CCS(=O)(=O)Nc1cccc(C(c2c(O)c3c(oc2=O)CCCCCC3)C2CC2)c1 (stereo not drawn) [Example 327]	34.2
CCCC(c1cccc(N)c1)c1c(O)c2c(oc1=O)CCCCCC2 (stereo not drawn) [Example 376]	10.6
CC(C)(C)OC(=O)NCC(=O)Nc1cccc(C(c2c(O)c3c(oc2=O)CCCCCC3)C2CC2)c1 (stereo not drawn) [Example 200]	64.6

====

target: UniProt:P04585; test: biochemical; settings: read-out: HIV-1 Protease % Inhib, dose 3.300 uM
OBSERVABLE: inhibition at 3.3 µM (%)

COMPOUND	TARGET_DESC	VALUE_REPORTED
O=c1oc2c(c(O)c1C(c1cccc(NS(=O)(=O)c3ccc(S(=O)(=O)c4ccccc4)s3)c1)C1CC1)CCCCCC2 (stereo not shown) [Example 299]	UniProt:P04585	91.7
CC(C)(C)OC(=O)N1CCC[C@H]1C(=O)Nc1cccc(C(c2c(O)c3c(oc2=O)CCCCCC3)C2CC2)c1 (stereo partly shown) [Example 202]	UniProt:P04585	88.1
O=C(Nc1cccc(C(c2c(O)c3c(oc2=O)CCCCCC3)C2CC2)c1)c1ccccc1 (stereo not shown) [Example 211]	UniProt:P04585	89.6
CN(C)S(=O)(=O)Nc1cccc(C(c2c(O)c3c(oc2=O)CCCCCC3)C2CC2)c1 (stereo not shown) [Example 398]	UniProt:P04585	91.5

====

target: UniProt P04585; experiment: biochemical; conditions: read-out: HIV-1 FITC KI
pKi: −log10 of the molar value.
Where pKi equals or exceeds 8, the correct label is Fulfilled; where it does not, the label is Not fulfilled.

COMPOUND	TARGET_DESC	ASSIGNED_CATEGORY
O=c1oc2c(c(O)c1C(c1cccc(NS(=O)(=O)c3ccccc3C(F)(F)F)c1)C1CC1)CCCCCC2 (stereo not drawn)	UniProt P04585	Not fulfilled
CC(C)CCC1CCCCc2c1oc(=O)c(C(c1ccccc1)C1CC1)c2O (stereo not drawn)	UniProt P04585	Not fulfilled
CC(C)CC(c1cccc(NS(=O)(=O)c2ccc(C#N)cc2)c1)c1c(O)c2c(oc1=O)CCCCCC2 (stereo not drawn)	UniProt P04585	Fulfilled
CCCC1CCCCc2c1oc(=O)c(C(c1ccccc1)C1CC1)c2O (stereo not drawn)	UniProt P04585	Not fulfilled
O=c1oc2c(c(O)c1C(c1cccc(NS(=O)(=O)c3cccc(O)c3)c1)C1CC1)CCCCCC2 (stereo not drawn)	UniProt P04585	Fulfilled
O=c1oc2c(c(O)c1C(c1ccccc1)C1CC1)CCCCCCC2 (stereo not drawn)	UniProt P04585	Not fulfilled
O=c1oc2c(c(O)c1C(c1ccccc1)C1CC1)CCCCCC2CC1CCCOC1 (stereo not drawn)	UniProt P04585	Not fulfilled
COc1cccc(Br)c1S(=O)(=O)Nc1cccc(C(c2c(O)c3c(oc2=O)CCCCCC3)C2CC2)c1 (stereo not drawn)	UniProt P04585	Not fulfilled
COCCC1CCCCc2c1oc(=O)c(C(c1ccccc1)C1CC1)c2O (stereo not drawn)	UniProt P04585	Not fulfilled
O=c1oc2c(c(O)c1C(c1ccccc1)C1CC1)CCCC2 (stereo not drawn)	UniProt P04585	Not fulfilled
O=c1oc2c(c(O)c1C(c1cccc(NS(=O)(=O)c3cccc(N4CCCS4(=O)=O)c3)c1)C1CC1)CCCCCC2 (stereo not drawn)	UniProt P04585	Fulfilled
O=c1oc2c(c(O)c1C(c1ccccc1)C1CC1)CCCCC2CC1CCCO1 (stereo not drawn)	UniProt P04585	Not fulfilled
CCCC(c1cccc(NS(=O)(=O)c2ccc(Cl)cc2)c1)c1c(O)c2c(oc1=O)CCCCCC2 (stereo not drawn)	UniProt P04585	Fulfilled
O=C(Nc1cccc(C(c2c(O)c3c(oc2=O)CCCCCC3)C2CC2)c1)OCc1ccccc1 (stereo not drawn)	UniProt P04585	Not fulfilled
O=c1oc2c(c(O)c1C(c1cccc(NS(=O)(=O)c3cccc4nsnc34)c1)C1CC1)CCCCCC2 (stereo not drawn)	UniProt P04585	Fulfilled
O=c1oc2c(c(O)c1[C@H](c1cccc(NS(=O)(=O)c3cccc4cccnc34)c1)C1CC1)CCCCCC2	UniProt P04585	Fulfilled

====

inhibition at 3.7 µM values for the molecules below.
biological target: HIV-1 protease (Human immunodeficiency virus type 1 group M subtype B, UniProt P04585); assay: biochemical; settings: read-out: HIV-1 Protease % Inhib, dose 3.700 uM
OBSERVABLE: inhibition at 3.7 µM (%)

MOLECULE	VALUE_REPORTED
CCC(c1ccccc1)c1c(O)c2c(oc1=O)C(Cc1ccccc1)CCCCC2 (centres unmarked) [Example 122]	91.7
O=c1oc2c(c(O)c1C(Cc1ccccc1)Cc1ccccc1)CCCCCC2 [Example 136]	90.1
O=c1oc2c(c(O)c1C(c1ccccc1)C1CC1)CCCCC2CC1CC1 (centres unmarked) [Example 125]	108
CCC(c1ccccc1)c1c(O)c2c(oc1=O)C(C)CCCCC2 (centres unmarked) [Example 126]	89.8
O=c1oc2ccccc2c(O)c1C1CCN(Cc2ccccc2)c2ccccc21 (centres unmarked) [Example 159]	39.8
CC(C)N=C(Nc1cccc(C(c2c(O)c3c(oc2=O)CCCCCC3)C2CC2)c1)NC(C)C (centres unmarked) [Example 120]	54.6
O=c1oc2c(c(O)c1C(C1CC1)C1CC1)CCCCCC2Cc1ccccc1 (centres unmarked) [Example 123]	82.5
CC(C)(C)C(c1ccccc1)c1c(O)c2ccccc2oc1=O (centres unmarked) [Example 152]	35.5
